molecular target: ZIKV E protein (Zika) (Zika virus); construct: the envelope protein of the Zika virus (ZIKV E); test: BIACORE surface plasmon resonance interaction with immobilized peptide; assay type: binding
Sequence (A0A024B7W1 291-794): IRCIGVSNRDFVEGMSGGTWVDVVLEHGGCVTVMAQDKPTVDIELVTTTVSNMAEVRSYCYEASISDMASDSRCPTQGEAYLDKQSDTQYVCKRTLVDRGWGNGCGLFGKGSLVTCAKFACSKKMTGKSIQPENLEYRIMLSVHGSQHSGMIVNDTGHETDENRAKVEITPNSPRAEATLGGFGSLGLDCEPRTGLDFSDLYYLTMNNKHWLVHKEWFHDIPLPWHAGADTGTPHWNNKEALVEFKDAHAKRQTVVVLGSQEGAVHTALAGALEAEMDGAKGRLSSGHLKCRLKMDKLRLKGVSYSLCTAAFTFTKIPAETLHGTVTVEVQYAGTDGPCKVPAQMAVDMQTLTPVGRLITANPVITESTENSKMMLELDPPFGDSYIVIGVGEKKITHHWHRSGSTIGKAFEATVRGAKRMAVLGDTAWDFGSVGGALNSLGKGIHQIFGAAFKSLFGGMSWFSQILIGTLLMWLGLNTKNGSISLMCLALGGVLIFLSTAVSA
pKd: −log10 of the molar value. No end group written: not given here.
Listing of recorded pKd by entry.
Quantity: pKd

>>> endpoint_result("NLNDRLASLYDKV [SEQ ID NO: 15]")
7.20
>>> endpoint_result("Ac-RVTQMNLNDRLASLYDKV [SEQ ID NO: 2]")
4.74
>>> endpoint_result("RVTQMNLNDRLASLYDKV [SEQ ID NO: 1]")
5.80
>>> endpoint_result("NDRLASLYDKV [SEQ ID NO: 14]")
5.49

Where do the numbers come from? From patent US20250282828A1.
